Origin of the recorded values: paper PMC8227285

molecular target: hSERT (Homo sapiens, UniProt P31645); construct: expressed in transfected cells; host or cells: COS-7; test: Radioactive neurotransmitter transport inhibition assay in transiently transfected COS-7 cells; assay type: cell-based; conditions: hSERT transiently transfected COS-7 cells; mean ± SEM, three independent experiments (Figure 1A); listed as Sydnocarb
Sequence (P31645 whole entry): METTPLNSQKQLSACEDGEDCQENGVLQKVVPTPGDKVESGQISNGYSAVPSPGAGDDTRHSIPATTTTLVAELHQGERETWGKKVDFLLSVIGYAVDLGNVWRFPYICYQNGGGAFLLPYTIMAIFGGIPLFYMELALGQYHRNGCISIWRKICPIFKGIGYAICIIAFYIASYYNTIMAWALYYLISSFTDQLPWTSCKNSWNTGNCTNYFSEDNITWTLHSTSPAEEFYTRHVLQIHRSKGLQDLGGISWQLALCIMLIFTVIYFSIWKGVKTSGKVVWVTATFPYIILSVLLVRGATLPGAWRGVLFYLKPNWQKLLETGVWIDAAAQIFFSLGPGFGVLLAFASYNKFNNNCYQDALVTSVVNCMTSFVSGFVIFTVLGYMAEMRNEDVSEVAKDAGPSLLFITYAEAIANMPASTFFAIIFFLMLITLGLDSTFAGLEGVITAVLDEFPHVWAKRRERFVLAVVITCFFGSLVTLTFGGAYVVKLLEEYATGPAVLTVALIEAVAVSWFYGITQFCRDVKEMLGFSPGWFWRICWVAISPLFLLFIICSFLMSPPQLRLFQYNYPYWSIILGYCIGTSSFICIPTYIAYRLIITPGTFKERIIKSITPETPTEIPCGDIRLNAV
parameter: IC50 (µM)
Entry rule: numbers only, all in µM.

Would you kindly share the measured IC50 for CC(Cc1ccccc1)[n+]1cc([N-]C(=O)Nc2ccccc2)on1 (stereo not shown) [sydnocarb] ?
495

---

target: hNET (Homo sapiens, UniProt P23975); assay: Radioactive neurotransmitter transport inhibition assay in transiently transfected COS-7 cells; details: hNET transiently transfected COS-7 cells; mean ± SEM, three independent experiments (Figure 1A)
Sequence (P23975 whole entry): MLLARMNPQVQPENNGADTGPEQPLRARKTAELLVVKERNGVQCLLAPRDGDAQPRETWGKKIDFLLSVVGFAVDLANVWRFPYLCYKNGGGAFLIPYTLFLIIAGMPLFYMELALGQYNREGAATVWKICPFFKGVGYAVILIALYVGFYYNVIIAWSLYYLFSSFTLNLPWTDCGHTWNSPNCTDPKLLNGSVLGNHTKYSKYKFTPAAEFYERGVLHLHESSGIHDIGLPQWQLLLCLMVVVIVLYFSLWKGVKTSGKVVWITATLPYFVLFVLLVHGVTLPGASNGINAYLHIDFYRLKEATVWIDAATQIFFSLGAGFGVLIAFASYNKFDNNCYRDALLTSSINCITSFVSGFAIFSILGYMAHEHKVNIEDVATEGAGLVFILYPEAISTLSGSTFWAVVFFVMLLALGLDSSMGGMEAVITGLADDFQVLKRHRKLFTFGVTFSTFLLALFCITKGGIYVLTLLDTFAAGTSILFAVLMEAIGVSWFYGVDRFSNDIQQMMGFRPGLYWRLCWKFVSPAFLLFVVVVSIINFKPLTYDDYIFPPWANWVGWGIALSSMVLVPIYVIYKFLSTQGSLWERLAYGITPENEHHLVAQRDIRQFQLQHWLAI
parameter: pIC50
// pIC50 here means minus log10 of the molar concentration (mol/L)

Would you kindly share the measured pIC50 for CC(Cc1ccccc1)[n+]1cc([N-]C(=O)Nc2ccccc2)on1 (stereo not shown) ?
4.46

---

target: Y156F-DAT (Homo sapiens, UniProt Q01959, Y156F); test: DA uptake inhibition assay in COS-7 cells expressing DAT mutant; details: Y156F-DAT-transfected COS-7 cells; mean ± SEM, three independent experiments
Sequence (Q01959 whole entry Y156F): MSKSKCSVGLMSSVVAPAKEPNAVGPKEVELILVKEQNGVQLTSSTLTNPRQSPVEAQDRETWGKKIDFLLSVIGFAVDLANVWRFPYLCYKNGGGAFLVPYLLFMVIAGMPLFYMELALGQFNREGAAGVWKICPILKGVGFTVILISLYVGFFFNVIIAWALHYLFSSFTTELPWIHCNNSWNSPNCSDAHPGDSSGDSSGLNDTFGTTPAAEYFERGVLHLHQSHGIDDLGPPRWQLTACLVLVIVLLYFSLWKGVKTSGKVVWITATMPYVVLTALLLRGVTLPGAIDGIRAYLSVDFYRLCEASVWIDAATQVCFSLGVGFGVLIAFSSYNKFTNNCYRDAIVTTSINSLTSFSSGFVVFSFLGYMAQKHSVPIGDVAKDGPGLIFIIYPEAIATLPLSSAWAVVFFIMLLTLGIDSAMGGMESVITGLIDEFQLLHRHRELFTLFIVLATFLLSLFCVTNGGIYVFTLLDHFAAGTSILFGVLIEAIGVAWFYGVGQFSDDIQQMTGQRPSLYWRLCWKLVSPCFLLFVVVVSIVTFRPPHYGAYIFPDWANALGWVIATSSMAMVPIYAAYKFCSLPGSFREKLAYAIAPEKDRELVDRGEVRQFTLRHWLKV
parameter: pIC50
// pIC50 here means minus log10 of the molar concentration (mol/L)

Would you kindly share the measured pIC50 for CC(Cc1ccccc1)[n+]1cc([N-]C(=O)Nc2ccccc2)on1 (stereo not shown) ?
6.58

---

target: Y335A-DAT (Homo sapiens, UniProt Q01959, Y335A); test: DA uptake inhibition assay in COS-7 cells expressing DAT mutant; conditions: Y335A-DAT-transfected COS-7 cells; mean ± SEM, three independent experiments
Sequence (Q01959 whole entry Y335A): as the sequence (Q01959 whole entry Y156F) above, with F156Y, Y335A counted along it
parameter: pIC50
// pIC50 here means minus log10 of the molar concentration (mol/L)

Would you kindly share the measured pIC50 for CC(Cc1ccccc1)[n+]1cc([N-]C(=O)Nc2ccccc2)on1 (stereo not shown) [sydnocarb] ?
5.85

---

target: hDAT (Homo sapiens, UniProt Q01959); construct: expressed in transfected cells; host or cells: COS-7; assay: [3H]-dopamine transport inhibition assay in transiently transfected COS-7 cells; assay type: cell-based; settings: WT-DAT-transfected COS-7 cells, mutant comparison (Figure 6); mean ± SEM, three independent experiments; read-out: IC50, DA uptake inhibition
Sequence (Q01959 whole entry): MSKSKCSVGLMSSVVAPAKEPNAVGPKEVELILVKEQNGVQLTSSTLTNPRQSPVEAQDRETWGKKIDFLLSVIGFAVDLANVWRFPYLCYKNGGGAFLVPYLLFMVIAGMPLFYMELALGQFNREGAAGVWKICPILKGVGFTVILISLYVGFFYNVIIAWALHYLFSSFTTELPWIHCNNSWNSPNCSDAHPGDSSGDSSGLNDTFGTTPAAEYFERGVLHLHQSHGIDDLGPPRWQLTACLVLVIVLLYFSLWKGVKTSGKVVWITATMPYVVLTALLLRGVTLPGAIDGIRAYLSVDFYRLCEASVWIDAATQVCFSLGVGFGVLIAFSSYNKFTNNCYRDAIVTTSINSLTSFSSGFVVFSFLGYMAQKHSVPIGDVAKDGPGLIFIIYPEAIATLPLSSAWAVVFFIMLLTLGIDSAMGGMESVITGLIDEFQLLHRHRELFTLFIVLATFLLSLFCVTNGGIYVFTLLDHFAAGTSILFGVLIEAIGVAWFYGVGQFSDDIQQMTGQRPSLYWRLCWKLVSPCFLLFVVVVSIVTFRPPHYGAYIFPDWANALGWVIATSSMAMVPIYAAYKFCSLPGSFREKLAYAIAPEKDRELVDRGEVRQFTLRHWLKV
parameter: IC50
State the value, then name its unit.

Would you kindly share the measured IC50 for CC(Cc1ccccc1)[n+]1cc([N-]C(=O)Nc2ccccc2)on1 (stereo not shown) ?
439 nM

---

biological target: hSERT (Homo sapiens, UniProt P31645); construct: expressed in transfected cells; host or cells: COS-7; assay: Radioactive neurotransmitter transport inhibition assay in transiently transfected COS-7 cells; type: cell-based; conditions: hSERT transiently transfected COS-7 cells; mean ± SEM, three independent experiments (Figure 1A)
parameter: IC50 (µM)
Entry rule: numbers only, all in µM.

Would you kindly share the measured IC50 for CC(Cc1ccccc1)[n+]1cc([N-]C(=O)Nc2ccccc2)on1 (stereo not shown) ?
495
